meta.source: patent US20070071780A1

- System: human nose
- assay text: Odor intensity evaluation by panelists and Human Recognition Slope Factor (HRSF) calculation in DPG
- condition: low hydrophobic media (DPG)
recorded endpoint: xi (lowest concentration to reach maximum intensity)
Answer with a bare number; do not write a unit.

Illustrative cases are given below, each with its answer.
CC(=O)C(C)=CC1C(C)=CCCC1(C)C (stereo not shown): 0.071
CCOC(=O)CC1(C)OCCO1 [Fructone, ethyl methyl dioxolane acetate]: 0.0278
CC1=CCC(C=CC(C)(C)C(C)O)C1(C)C (stereo not shown): 0.106

[ask] GET /values?readout=xi (lowest concentration to reach maximum intensity)&system=human nose&item= CCCCCCCCCCCC=O
[reply] 0.0478
